assayTarget: Human TRPC6 (Homo sapiens, UniProt Q9Y210)
Construct: expressed in transfected cells
Sequence (Q9Y210 1-931): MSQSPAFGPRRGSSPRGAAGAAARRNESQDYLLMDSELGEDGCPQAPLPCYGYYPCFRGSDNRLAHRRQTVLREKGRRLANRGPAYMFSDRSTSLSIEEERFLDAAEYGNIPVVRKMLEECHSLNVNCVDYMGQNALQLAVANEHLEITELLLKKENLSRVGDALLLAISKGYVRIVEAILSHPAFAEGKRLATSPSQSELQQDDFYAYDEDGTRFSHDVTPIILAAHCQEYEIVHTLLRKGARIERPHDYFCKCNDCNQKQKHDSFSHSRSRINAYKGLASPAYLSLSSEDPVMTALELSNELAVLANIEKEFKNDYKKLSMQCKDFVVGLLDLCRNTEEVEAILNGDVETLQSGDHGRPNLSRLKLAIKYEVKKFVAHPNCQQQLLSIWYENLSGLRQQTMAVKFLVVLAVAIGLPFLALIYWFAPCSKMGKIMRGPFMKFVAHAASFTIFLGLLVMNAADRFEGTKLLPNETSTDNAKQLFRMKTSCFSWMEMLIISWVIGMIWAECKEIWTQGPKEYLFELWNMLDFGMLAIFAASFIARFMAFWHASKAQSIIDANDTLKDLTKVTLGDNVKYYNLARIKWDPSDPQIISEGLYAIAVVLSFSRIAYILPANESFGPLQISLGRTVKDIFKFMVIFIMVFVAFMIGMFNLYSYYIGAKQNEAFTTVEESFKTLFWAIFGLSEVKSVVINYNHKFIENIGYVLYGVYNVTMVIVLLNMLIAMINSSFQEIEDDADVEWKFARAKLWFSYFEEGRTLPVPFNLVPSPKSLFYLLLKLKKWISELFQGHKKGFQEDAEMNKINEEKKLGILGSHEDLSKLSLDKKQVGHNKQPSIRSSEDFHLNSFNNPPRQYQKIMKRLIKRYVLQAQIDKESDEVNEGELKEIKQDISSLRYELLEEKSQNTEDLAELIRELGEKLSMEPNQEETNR
procedureText: Evaluation of TRPC6 channel inhibitory activity (1), FLIPR Calcium 5 Assay Kit, OAG stimulation (Compound Nos. 1-1293)
Type: cell-based
details: Human TRPC6 stably-expressing cells, OAG 30 μM, FLIPR Calcium 5 Assay Kit; read-out: Inhibitory activity (pIC50 class) (converted)
observedProperty: IC50

compound | observedProperty | testResult
Cc1nc(-c2ccc(C(F)(F)F)cc2)cn1Cc1cc(C#N)ccc1-c1ccc(CCN)cc1 [compound 1125] | IC50 | > 1000 nM
N#Cc1ccc(-c2ccc(CN)cn2)c(C(=O)c2cnc(N3CCOCC3)o2)c1 [compound 1085] | IC50 | 10 to 1000 nM
Cn1nc(N2CCOCC2)cc1C(=O)c1cc(F)ccc1-c1ncc(CN)cn1 [compound 1105] | IC50 | 10 to 1000 nM
Cn1nc(C2CCOCC2)cc1Oc1cc(C#N)ccc1-c1ccc([C@H](O)CN)cn1 [compound 442] | IC50 | 10 to 1000 nM
Cn1nc(-c2ccccn2)cc1Oc1cc(C#N)ccc1-c1cc(CN)cn2cnnc12 [compound 732] | IC50 | 10 to 1000 nM
Cc1cc(Oc2cc(C#N)ccc2-c2ccc(C(C)(C)N)cn2)cc(N2CCOCC2)n1 [compound 397] | IC50 | 10 to 1000 nM
Cc1cc(Oc2cc(C#N)ccc2-c2ncc([C@H](O)CN)cn2)cc(N2CCCC2)n1 [compound 499] | IC50 | < 10 nM
Cn1nc(C#N)cc1Oc1cc(C#N)ccc1-c1ccc(CCN)cn1 [compound 964] | IC50 | 10 to 1000 nM

# input Consider the compound Cn1nc(-c2ccccc2OCc2ccccc2)cc1Oc1cc(C#N)ccc1-c1ccc(C(O)CN)cn1 (centres unmarked) [compound 322] . State its measured IC50.
# output 10 to 1000 nM

# input Consider the compound CCNc1cc(Oc2cc(C#N)ccc2-c2ncc(CN)cn2)cc(C)n1 [compound 643] . State its measured IC50.
# output 10 to 1000 nM

# input Consider the compound Cn1nc(-c2ccccc2)cc1Oc1cc(C#N)ccc1-c1nnc(CN)s1 [compound 583] . State its measured IC50.
# output > 1000 nM

# input Consider the compound Cc1cc(Oc2cc(C#N)ccc2-c2ncc(CN)cn2)cc(NC2CCOCC2)n1 [compound 648] . State its measured IC50.
# output > 1000 nM

# input Consider the compound Cn1nc(C2CC2)cc1Oc1cc(C#N)ccc1-c1ccc(CN2CCNCC2)cn1 [compound 779] . State its measured IC50.
# output > 1000 nM
